Just for reference, ChEMBL document CHEMBL1124349 is where these values come from.

# TEST TARGET: GABA-A receptor; anion channel (Rattus norvegicus) (UniProt O09028+P15431+P18506+P18508+P19969+P20236+P23574+P23576+P28471+P28473+P30191+P62813+P63079+P63138+Q91ZM7+Q9ES14)
# TEST DETAILS: Ratio of binding affinity to the GABA-A receptor in the presence and absence of GABA
# Assay type: protein-complex assay

| SMILES | GABA shift |
| --- | --- |
| CC(C)c1noc(-c2ncn3c2CN=C(c2ccccc2Cl)c2ccccc2-3)n1 | 1.83 |
| CCCc1noc(-c2ncn3c2CN(C)C(=O)c2ccccc2-3)n1 | 2.08 |
| CCCc1noc(-c2ncn3c2CN=C(c2ccccc2)c2c(Cl)cccc2-3)n1 | 1.85 |
| CCc1nc(-c2ncn3c2CN(C)C(=O)c2cc(F)ccc2-3)no1 | 1.84 |
| Cc1nc(-c2ncn3c2CN=C(c2ccccc2Cl)c2ccccc2-3)no1 | 1.35 |
| CCCc1nc(-c2ncn3c2CN=C(c2ccccc2Cl)c2ccccc2-3)no1 | 1.68 |
| CCc1nc(-c2ncn3c2CN(C)C(=O)c2ccccc2-3)no1 | 1.8 |
| Cc1noc(-c2ncn3c2CN=C(c2ccccc2)c2c(F)cccc2-3)n1 | 1.84 |
| Cc1nc(-c2ncn3c2CN=C(c2ccccc2)c2ccccc2-3)no1 | 1.56 |
| Cc1noc(-c2ncn3c2CN(C)C(=O)c2c(Cl)cccc2-3)n1 | 1.51 |
| CCCc1noc(-c2ncn3c2CN(C)C(=O)c2c(Cl)cccc2-3)n1 | 1.53 |
| CC(C)c1noc(-c2ncn3c2CN=C(c2ccccc2)c2c(Cl)cccc2-3)n1 | 1.91 |
| CCc1nc(-c2ncn3c2CN=C(c2ccccc2)c2c(F)cccc2-3)no1 | 1.82 |
| CCc1nc(-c2ncn3c2CN=C(c2ccccc2Cl)c2cc(Cl)ccc2-3)no1 | 1.86 |
| Cc1nc(-c2ncn3c2CN=C(c2ccccc2Cl)c2cc(Cl)ccc2-3)no1 | 1.83 |

###

# TEST TARGET: GABA-A receptor; anion channel (Rattus norvegicus) (UniProt O09028+P15431+P18506+P18508+P19969+P20236+P23574+P23576+P28471+P28473+P30191+P62813+P63079+P63138+Q91ZM7+Q9ES14)
# TEST DETAILS: Ratio of binding affinity to the GABA-A receptor in the presence and absence of GABA
# Assay type: protein-complex assay

| COMPOUND | GABA shift |
| --- | --- |
| CCc1noc(-c2ncn3c2CN(C)C(=O)c2c(Cl)cccc2-3)n1 | 1.43 |
| CCc1nc(-c2ncn3c2CN(C)C(=O)c2c(F)cccc2-3)no1 | 1.44 |
| CCCc1noc(-c2ncn3c2CN(C)C(=O)c2cc(F)ccc2-3)n1 | 2 |
| Cc1noc(-c2ncn3c2CN(C)C(=O)c2cc(F)ccc2-3)n1 | 1.47 |
| CC(C)c1nc(-c2ncn3c2CN=C(c2ccccc2Cl)c2ccccc2-3)no1 | 1.64 |
| CCc1noc(-c2ncn3c2CN=C(c2ccccc2)c2c(Cl)cccc2-3)n1 | 2.21 |
| CCCc1noc(-c2ncn3c2CN(C)C(=O)c2c(F)cccc2-3)n1 | 1.94 |
| O=C(OCC1CC1)c1ncn2c1C1CCN1C(=O)c1c(Cl)cccc1-2 (stereo not given) | 1.7 |
| CCc1nc(-c2ncn3c2CN=C(c2ccccc2)c2cc(Cl)ccc2-3)no1 | 2.43 |
| Cc1noc(-c2ncn3c2CN=C(c2ccccc2)c2c(Cl)cccc2-3)n1 | 1.67 |
